experiment: Metabolic stability in mouse liver microsomes
Type: in vitro ADME, CD-1 mouse
run parameters: CD-1
Method: The metabolic stability of test compounds was examined in CD-1 mouse, Sprague Dawley rat, Beagle dog, cynomolgus monkey, and human liver microsomes. Test compound (final concentration 1 μM) was mixed with diluted liver microsomes from each of the 5 species and a small aliquot was taken at 0, 5, 10, 20, 30, and 60 minutes for LC/MS/MS analysis. Intrinsic clearance and half-life were calculated.
property name: log10 half-life at 1 μM (log10 of the value in min)
Annotation: log10 of half-life at 1 μM, min basis.

Query block: Please look up its log10 half-life at 1 μM: CC1(C)C(=O)C(C#N)=C[C@]2(C)C3=CC(=O)[C@@H]4[C@@H]5C[C@@](C)(N6CC(O)C6)CC[C@]5(C)CC[C@@]4(C)[C@]3(C)CC[C@@H]12
Result block: 1.14

Query block: Which log10 half-life at 1 μM is reported for this compound? CC1(C)C(=O)C(C#N)=C[C@]2(C)C3=CC(=O)[C@@H]4[C@@H]5C[C@@](C)(c6nnco6)CC[C@]5(C)CC[C@@]4(C)[C@]3(C)CC[C@@H]12
Result block: 1.47

Query block: Query: log10 half-life at 1 μM; subject: CNC(=NC#N)NC[C@]12CCC(C)(C)C[C@H]1[C@H]1C(=O)C=C3[C@@]4(C)C=C(C#N)C(=O)C(C)(C)[C@@H]4CC[C@@]3(C)[C@]1(C)CC2
Result block: 1.56

Query block: I would be grateful if you could share the reported log10 half-life at 1 μM for CC(=NC#N)NC[C@]12CCC(C)(C)C[C@H]1[C@H]1C(=O)C=C3[C@@]4(C)C=C(C#N)C(=O)C(C)(C)[C@@H]4CC[C@@]3(C)[C@]1(C)CC2 .
Result block: 1.57

Query block: Need log10 half-life at 1 μM, item CC1(C)C(=O)C(C#N)=C[C@]2(C)C3=CC(=O)[C@@H]4[C@@H]5C[C@@](C)(C#N)CC[C@]5(C)CC[C@@]4(C)[C@]3(C)CC[C@@H]12
Result block: 0.49

Query block: Given Cc1nnc([C@@]2(C)CC[C@]3(C)CC[C@]4(C)[C@H](C(=O)C=C5[C@@]6(C)C=C(C#N)C(=O)C(C)(C)[C@@H]6CC[C@]54C)[C@@H]3C2)o1 , state its recorded log10 half-life at 1 μM.
Result block: 1.11

Query block: I would be grateful if you could share the reported log10 half-life at 1 μM for CC1(C)C(=O)C(C#N)=C[C@]2(C)C3=CC(=O)[C@@H]4[C@@H]5C[C@@](C)(c6nnc(C(N)=O)o6)CC[C@]5(C)CC[C@@]4(C)[C@]3(C)CC[C@@H]12 .
Result block: 1.28

Query block: Value lookup for log10 half-life at 1 μM; key = COC(=O)[C@]12CCC(C)(C)C[C@H]1[C@H]1C(=O)C=C3[C@@]4(C)C=C(C#N)C(=O)C(C)(C)[C@@H]4CC[C@@]3(C)[C@]1(C)CC2 [Control, reference compound]
Result block: 1.49

Query block: What value of log10 half-life at 1 μM has been reported for the following compound? CC1(C)C(=O)C(C#N)=C[C@]2(C)C3=CC(=O)[C@@H]4[C@@H]5C[C@@](C)(Cc6nnco6)CC[C@]5(C)CC[C@@]4(C)[C@]3(C)CC[C@@H]12
Result block: 0.58
